Experiment: Plasma, brain and CSF pharmacokinetics and brain tissue accumulation in mice (LC-MS/MS)
Format: in vivo, male C57BL/6 mice
Conditions: male, C57BL/6, mouse, brain/CSF; 5 mg/kg oral; time point 0.50 h; read-out: Brain/CSF-Kp
Measurement label: Kp at 0.5 h
Respond numerically, and do not add a unit to the figure.

Prompt: What value of measured Kp at 0.5 h is listed for Cc1c(N[S+](=O)(O)c2c(Cl)cc(-c3ccnc(N4CCNCC4)c3)cc2Cl)c(CC(C)C)nn1C ?
Response: 35

* * *

Experiment: Plasma pharmacokinetics in phase I clinical trial NCT04836195 (oral daily dose)
Type: in vivo, human
Conditions: human, plasma, oral, 210 mg, plasma; 210 mg; Cycle 1 D15; read-out: Cmax (mean, SD)
Measurement label: Cmax (ng/mL)
Quick reminder: number only, in ng/mL, skip the unit.

Prompt: Find the recorded Cmax belonging to Cc1c(N[S+](=O)(O)c2c(Cl)cc(-c3ccnc(N4CCNCC4)c3)cc2Cl)c(CC(C)C)nn1C [PCLX-001] and report it.
Response: 2940
